Could you please report measured cell viability for the items listed next?
# System: P12-Ichikawa
# Test protocol: cell viability relative to DMSO control; higher = less cytotoxic
# Condition set: RPMI 5 mM glucose + 10% dialyzed FBS; 48 h; 0.569 µM
Return type: number; implicit unit %.

Lookup result for `CC(C)(C)c1cc(C(=O)O)c(NC(=O)Nc2ccc3[nH]ncc3c2)s1` ; measured cell viability: 90

The value of cell viability measured for the compound `O=C(CCCCCCC(=O)Nc1ccccc1)NO` turned out to be 102

Item: `Cc1ccc(C(=O)c2cc(O)c(O)c([N+](=O)[O-])c2)cc1` | cell viability: 99.2

GET /value?item= C[S+]([O-])c1ccc(-c2nc(-c3ccc(F)cc3)c(-c3ccncc3)[nH]2)cc1 (centres undefined) &field=cell viability returns 98.6

The reported cell viability of the compound `COc1cc([C@@H]2c3cc4c(cc3[C@@H](O[C@@H]3O[C@@H]5CO[C@@H](c6cccs6)O[C@H]5[C@H](O)[C@H]3O)[C@H]3COC(=O)[C@H]23)OCO4)cc(OC)c1O` was 73.7

Documented cell viability of `CNCC(O)C(O)C(O)C(O)CO.O=C(O)c1ccc(-c2cc3cccnc3c(-c3ccc4nonc4c3)n2)cc1` : 119

In plain terms, `Cc1[nH]c(/C=C2\C(=O)Nc3ccc([S+](=O)([O-])Cc4c(Cl)cccc4Cl)cc32)c(C)c1C(=O)N1CCC[C@@H]1CN1CCCC1` has a documented cell viability of 95

Per the records, this compound ( `CN(C)c1ccc(Nc2nc(N)n(C(=O)c3c(F)cccc3F)n2)cc1` ) has cell viability equal to 118

Kindly note the recorded cell viability for `Nc1nc(OCc2ccccc2)c2nc[nH]c2n1` , which is 122

###

# Test system: P12-Ichikawa
# Test protocol: cell viability relative to DMSO control; higher = less cytotoxic
# Condition set: RPMI 5 mM glucose + 10% dialyzed FBS; 48 h; 0.00702 µM
Observation type: cell viability (%)
Lab book: enter the figure in %, no units written.

Value of cell viability reported for the compound `O=C1CCc2ccc(OCCCCN3CCN(c4cccc(Cl)c4Cl)CC3)cc2N1` is 96.9

// sample COc1cc(-c2nn(C3CCC(N4CCN(C(C)=O)CC4)CC3)c3ncnc(N)c23)ccc1NC(=O)c1cc2ccccc2n1C (stereo not given) , its cell viability was 119

For `COc1cc2ncnc(Nc3cccc(Br)c3)c2cc1OC` the compound record lists cell viability as 106

Briefly, cell viability measured for `OC(COC1=C2C(=O)\C=C(/OC2=CC=C1)C([O-])=O)COC3=C4C(=O)\C=C(/OC4=CC=C3)C([O-])=O` : 84.8

Entry COc1ccc2c(c1OC)CN1CCc3cc4c(cc3C1C2)OCO4 (stereo not given) — recorded cell viability = 92.6

Input `CCN1C[C@]2(OC(=O)c3ccccc3NC(C)=O)CC[C@H](OC)[C@@]34[C@@H]2C[C@@H]([C@@H]13)[C@@]1(O)C[C@H](OC)[C@H]2C[C@@H]4[C@]1(O)[C@H]2OC` . Output cell viability: 115

Record `CN(C)c1ccc(Nc2nc(N)n(C(=O)c3c(F)cccc3F)n2)cc1` , field cell viability: 120

Lab note: measured cell viability of `CN(C)c1ccc2cc(C(=O)N[C@@H](CCCNC(=N)CCl)C(=O)NCc3ccccc3)ccc2c1` was 108

Record `CN(C)CC/C=C1/c2ccccc2COc2ccc(CC(=O)O)cc21` , field cell viability: 122

Please fill in: cell viability reported for `CO[C@H]1C[C@@H]2CC[C@@H](C)[C@@](O)(O2)C(=O)C(=O)N2CCCC[C@H]2C(=O)O[C@H]([C@H](C)C[C@@H]2CC[C@@H](OCCO)[C@H](OC)C2)CC(=O)[C@H](C)/C=C(/C)[C@@H](O)[C@@H](OC)C(=O)[C@H](C)C[C@H](C)\C=C/C=C\C=C/1C` = 93.7

# cell viability of `CN[C@@H]1C[C@H]2O[C@@](C)([C@@H]1OC)n1c3ccccc3c3c4c(c5c6ccccc6n2c5c31)C(=O)N[C@H]4O` = 85.9

Record summary for `CCCCCCCCCCCCCCCCCCOP(=O)([O-])OC1CC[N+](C)(C)CC1` : reported cell viability = 126

The recorded cell viability for entry `OCCCNc1cc(-c2ccnc(Nc3cccc(Cl)c3)n2)ccn1` equals 106

Input `NC(=O)c1cccc(N)c1` . Output cell viability: 78.1

For this compound ( `NC\1=N\C(=O)N(\C=C1)[C@H]\2[C@H](O)[C@H](O)C(=C2F)\CO` ), measured cell viability is 114

cell viability reported for this compound `Cc1[nH]c(/C=C2\C(=O)Nc3ccc([S+](=O)([O-])Cc4c(Cl)cccc4Cl)cc32)c(C)c1C(=O)N1CCC[C@@H]1CN1CCCC1` : 93.7

// field: cell viability; key: `Cc1cc(O)c2c(c1)C(=O)c1cc(O)cc(O)c1C2=O` ; value = 88.8

Entry `CC(C)(C)NC(=O)[C@@H]1CN(Cc2cccnc2)CCN1C[C@@H](O)C[C@@H](Cc1ccccc1)C(=O)N[C@H]1c2ccccc2C[C@H]1O.O=S(=O)(O)O` — recorded cell viability = 119

The compound listed as `O=C(CCCCCCC(=O)Nc1ccccc1)NO` shows cell viability equal to 98.1

Short answer for `O=c1[nH]cnc2c1ncn2[C@H]1CC[C@@H](CO)O1` : cell viability was 94.3

For record `CC(=O)[C@H]1CC[C@H]2[C@@H]3CCC4=CC(=O)CC[C@]4(C)[C@H]3CC[C@]12C` the listed cell viability is 108

Noted for `OC1=CC=C(C=C1)\C2=C\C(=O)C3=C(O2)C=C(O)C=C3O` : its cell viability reads 119

Reported cell viability for `COC1=CC2=C(C=C1OC)[C@H]3[C@@H](CO2)OC4=C(C=CC5=C4\C=C/C(C)(C)O5)C3=O` was 93.8

Record summary for `Nc1nc(OCc2ccccc2)c2nc[nH]c2n1` : reported cell viability = 119

// cell viability value for CO[C@@H]1C(N(C)C(=O)c2ccccc2)C[C@H]2O[C@]1(C)n1c3ccccc3c3c4c(c5c6ccccc6n2c5c31)C(=O)NC4=O (stereo not given in full) : 91
